Provenance of the data: ChEMBL document CHEMBL1201862

System: CAKI-1
Assay: NCI tumour cell line growth inhibition, 48 h
Activity calls are given as the source filed them. Cut-off read from the data, not from the text of the source: active = GI50 up to about 1.1 µM and inactive = higher.
Overview of reported GI50 across a group of compounds:

Input line: Return reported GI50; argument: Cc1ccc(C)n1-c1ccccc1C1SCCCS1
Output line: > 100 µM (inactive)

Input line: Return reported GI50; argument: NS(=O)(=O)c1ccc(/N=N/c2cccnc2O)cc1
Output line: > 100 µM (inactive)

Input line: Return reported GI50; argument: CCOC(=O)NNC(=O)NCCCCNC(=O)NNC(=O)OCC
Output line: > 100 µM (inactive)

###

System: NCI-H226
Assay: NCI tumour cell line growth inhibition, 48 h
The source made the active and inactive calls. Cut-off read from the data, not from the text of the source: active = GI50 up to about 1.1 µM and inactive = higher.
Overview of reported GI50 across a group of molecules:

Cc1ccc(C(=O)c2[nH]c(Nc3cc(C)ccn3)c(C(=S)Nc3ccccc3)c2N)cc1 ... > 100 µM (inactive)

Input line: Return reported GI50; argument: N=C(N)NCCCC(Nc1c2ccccc2[n+]([O-])c2ccccc12)C(=O)O (stereo not given)
Output line: 70.6 µM (inactive)

Input line: Return reported GI50; argument: [O-][N+]1(CC[N+]2([O-])CCCCC2)CCCCC1
Output line: > 100 µM (inactive)

Input line: Return reported GI50; argument: O=S(=O)(NNc1ccccc1)c1ccccc1
Output line: 4.12 µM (inactive)

###

Test system: MDA-MB-231
Assay: NCI tumour cell line growth inhibition, 48 h
The source made the active and inactive calls. No stated cut-off is given here; in the data, active = GI50 up to about 1.1 µM and inactive = higher.
Valid outcomes are listed here; reply with one: active, inactive

Solved entries (count: 5):
COc1ccc(N2C(=O)/C(=C/c3ccc(N(CCC#N)CCC#N)cc3)N=C2c2ccccc2)c(OC)c1 ... inactive
CCCCC(C#N)(OP1(=O)OC(c2ccccc2)C(C)N1C)c1ccccc1 (stereo not drawn) ... inactive
CC[C@H]1C=CCC[C@@]2(C[C@@H]3CC[C@@H]4[C@H](C(=O)OCCCCCCCCCCCCCCCC(=O)N(CCCNC(C)=O)C[C@H](CCNC(C)=O)OC(C)=O)[C@]5(CCC[C@@H](C)O5)NC(=[N+]34)N2)O1 ... active
CSc1cc(N)ccc1/N=N/c1ccc(S(N)(=O)=O)cc1 ... inactive
COC(=O)c1csc([C@@H](OC(=O)[C@H](C)[C@H](CCCC(C)(Cl)Cl)OC(=O)c2csc([C@H](O)CO)n2)C(C)C)n1 ... inactive

Input line: What outcome does the record of this test show for C[C@@H](c1ccccc1)N1CO[C@@]2(C#Cc3ccc4c(c3)OCO4)CCC[C@@H]12 ?
Output line: inactive

Input line: What outcome does the record of this test show for COc1cc(S(=O)(=O)Nc2ccc(-c3csc(/N=C\c4ccccc4)n3)cc2)ccc1Cl ?
Output line: inactive

Input line: What outcome does the record of this test show for COc1ccccc1C1c2cc3c(cc2OC2(OC)COC(=O)C12)OCO3 (stereo not drawn) ?
Output line: inactive

###

System: OVCAR-5
Assay: NCI tumour cell line growth inhibition, 48 h
The source made the active and inactive calls. Cut-off read from the data, not from the text of the source: active = GI50 up to about 1.1 µM and inactive = higher.
Overview of reported GI50 across a group of compounds:

Solved cases (10 shown):
COc1cc(OC)c(C#N)c(OC)c1C ... 98.4 µM (inactive)
COC(=O)c1ccccc1CC1Cc2cc3c(cc2C1=O)CCC3 (configuration not stated) ... 26.5 µM (inactive)
CSc1cc(N)ccc1/N=N/c1ccc(S(N)(=O)=O)cc1 ... 45 µM (inactive)
CC(C)(C)CNCCO ... > 100 µM (inactive)
C=C1C(=O)O[C@@H]2C[C@]3(C)[C@@H](C[C@H]12)[C@](C)(O)CC[C@@H]3O ... > 100 µM (inactive)
[O-][N+]1(CC[N+]2([O-])CCCCC2)CCCCC1 ... > 100 µM (inactive)
N#CCCN(CCCN(C(=O)Nc1ccccc1)c1ccccc1)C(=O)Nc1ccccc1 ... > 100 µM (inactive)
C=C(Cl)COC(=O)Nc1cccc(Cl)c1 ... 48.2 µM (inactive)
CCN(CC)c1nc(=O)c(C(=O)C(C)(C)C)c(C(C)(C)C)o1 ... > 100 µM (inactive)
COC(=O)C1Cc2ccc(C)cc2C1=O (configuration not stated) ... > 100 µM (inactive)

Input line: Return reported GI50; argument: O=C(CCC/C(CC(=O)c1ccc(Br)cc1)=N\O)Nc1ccccc1
Output line: 28.2 µM (inactive)

Input line: Return reported GI50; argument: Clc1cc(-c2ccccc2)nc(Nc2nc3ccccc3[nH]2)n1
Output line: > 100 µM (inactive)
